- protocolSummary: Determining the solubility (saturated solution in McIlvaine buffer pH 7.4, UV spectroscopy)
- Assay type: physicochemical
- details: pH 7.4, aqueous buffer, thermodynamic from solid, shaken 2 hours, 0.75 mg solid in 0.75 ml
Overview of reported solubility at 2 h across a group of compounds:
Unit µg/mL implied. Number only.

The examples below pair each entry with its known result.
| compound | solubility at 2 h [µg/mL] |
| --- | --- |
| COc1c(NC(=O)c2cc3cccc(CN4CCN(C(=O)[C@@H]5CCCN5C)CC4)c3n2C)cc(C(C)(C)C)cc1S(C)(=O)=O | 43 |
| COc1c(NC(=O)c2cc3cccc(CN4CCN(C(=O)CN5CCN(C(C)C)CC5)CC4)c3n2C)cc(C(C)(C)C)cc1NS(C)(=O)=O | 120 |
| COc1c(NC(=O)c2cc3cccc(CN4CCC(C(=O)N5CCN(C)CC5)CC4)c3n2C)cc(C(C)(C)C)cc1NS(C)(=O)=O | 42 |
| CCN(CC)Cc1cc(C(C)(C)C)cc(NC(=O)c2cc3cccc(CN4CCN(C(=O)[C@@H]5CCCN5C)CC4)c3n2C)c1OC | 860 |
| COc1c(NC(=O)c2cc3cccc(CN4CCN(C(=O)CN5CC[C@@H](O)C5)CC4)c3n2C)cc(C(C)(C)C)cc1NS(C)(=O)=O | 47 |

Next up:
Just so you know, measured solubility at 2 h for `COc1c(NC(=O)c2cc3cccc(CN4CCN(C(=O)N5CC[C@H](N(C)C)C5)CC4)c3n2C)cc(C(C)(C)C)cc1NS(C)(=O)=O` came out at 28

Just for reference, patent US8686022B2 is where these values come from.
